Molecular target: D(1A) dopamine receptor (Homo sapiens)
Experiment: Compound was evaluated for the Dopamine receptor D1 by displacement of [3H]SCH-23390.
pIC50: −log10 of the molar value.
test.readout: pIC50

1. CCCN(CCCCN1C(=O)CC2(CCCC2)CC1=O)C1COc2cccc(OC)c2C1 (stereo unspecified) = 4.40

###

Molecular target: 5-hydroxytryptamine receptor 1A (Homo sapiens)
Sequence (P08908 whole entry): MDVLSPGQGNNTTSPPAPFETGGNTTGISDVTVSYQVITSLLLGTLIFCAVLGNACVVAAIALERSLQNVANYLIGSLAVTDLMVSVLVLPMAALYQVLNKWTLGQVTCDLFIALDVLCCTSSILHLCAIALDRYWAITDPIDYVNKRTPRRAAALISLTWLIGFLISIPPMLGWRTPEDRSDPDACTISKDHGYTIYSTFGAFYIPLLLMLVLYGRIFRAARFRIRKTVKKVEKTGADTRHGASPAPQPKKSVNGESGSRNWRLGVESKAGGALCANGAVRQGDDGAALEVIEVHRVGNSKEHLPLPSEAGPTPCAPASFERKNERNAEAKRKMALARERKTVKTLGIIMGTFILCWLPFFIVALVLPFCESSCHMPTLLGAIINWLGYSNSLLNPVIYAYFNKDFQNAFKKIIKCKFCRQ
IC50 less than 10 nM is true (1); IC50 greater than or equal to 10 nM is false (0).

1) CCCN1CCN(Cc2ccccc2)CC12COc1cccc(OC)c1C2 (stereo unspecified) = false (0)
2) CCCN(CCCCN1C(=O)CC2(CCCC2)CC1=O)CC1COc2cccc(OC)c2C1 (stereo unspecified) = false (0)
3) CCCN1CCN(CCCCN2C(=O)CC3(CCCC3)CC2=O)CC12COc1cccc(OC)c1C2 (stereo unspecified) = false (0)
4) CCCN1CCN(CCC)C2(COc3cccc(OC)c3C2)C1 (stereo unspecified) = false (0)
5) COc1cccc2c1CC1(CCCN1CCCCN1C(=O)CC3(CCCC3)CC1=O)CO2 (stereo unspecified) = false (0)
6) COc1cccc2c1CC(CNCCCCN1C(=O)CC3(CCCC3)CC1=O)CO2 (stereo unspecified) = true (1)

###

Target: 5-hydroxytryptamine receptor 2A (Homo sapiens)
Sequence (P28223 whole entry): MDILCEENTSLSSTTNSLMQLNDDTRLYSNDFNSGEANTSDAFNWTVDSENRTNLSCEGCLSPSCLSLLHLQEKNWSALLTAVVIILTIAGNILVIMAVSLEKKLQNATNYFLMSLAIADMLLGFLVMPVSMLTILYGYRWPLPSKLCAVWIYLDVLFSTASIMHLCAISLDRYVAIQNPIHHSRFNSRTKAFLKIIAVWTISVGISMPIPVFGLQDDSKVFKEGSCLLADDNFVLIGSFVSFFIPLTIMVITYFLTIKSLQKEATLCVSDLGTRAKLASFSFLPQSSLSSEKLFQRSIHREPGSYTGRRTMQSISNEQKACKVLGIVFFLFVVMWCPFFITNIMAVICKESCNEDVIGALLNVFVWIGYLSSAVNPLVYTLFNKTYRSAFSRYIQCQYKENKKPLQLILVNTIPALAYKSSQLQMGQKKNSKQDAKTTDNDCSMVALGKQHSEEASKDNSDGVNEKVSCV
test.readout: IC50 (µM)

1. CCCN1CCN(Cc2ccccc2)CC12COc1cccc(OC)c1C2 (centres undefined) = 24.5
2. COc1cccc2c1CC(CNCCCCN1C(=O)CC3(CCCC3)CC1=O)CO2 (centres undefined) = 0.049
3. CCCN(CCC)CC1COc2cccc(OC)c2C1 (centres undefined) = 15.8
4. O=C1CC2(CCCC2)CC(=O)N1CCCCNCC1COc2ccccc2C1 (centres undefined) = 0.0562

###

Biological target: D(2) dopamine receptor (Homo sapiens)
Sequence (P14416 whole entry): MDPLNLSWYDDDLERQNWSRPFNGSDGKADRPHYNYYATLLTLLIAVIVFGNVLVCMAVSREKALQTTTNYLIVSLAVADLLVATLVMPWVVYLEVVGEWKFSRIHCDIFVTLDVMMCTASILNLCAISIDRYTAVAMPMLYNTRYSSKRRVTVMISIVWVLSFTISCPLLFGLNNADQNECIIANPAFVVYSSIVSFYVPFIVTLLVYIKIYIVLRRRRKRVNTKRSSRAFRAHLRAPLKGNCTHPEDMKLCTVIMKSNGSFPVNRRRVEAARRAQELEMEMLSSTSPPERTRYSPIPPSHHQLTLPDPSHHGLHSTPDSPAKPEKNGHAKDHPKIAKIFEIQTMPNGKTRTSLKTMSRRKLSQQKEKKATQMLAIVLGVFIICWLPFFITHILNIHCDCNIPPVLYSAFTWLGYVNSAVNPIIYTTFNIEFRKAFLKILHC
Test: Binding affinity towards Dopamine receptor D2 by displacement of [3H]-Raclopride.
pIC50: −log10 of the molar value.
Binary classification by pIC50, with 7 as an inclusive lower bound for satisfied; all other cases are not satisfied.

1. COc1cccc2c1CC(CNCCCCN1C(=O)CC3(CCCC3)CC1=O)CO2 (stereo not given) = satisfied
2. CCCN(CCCCN1C(=O)CC2(CCCC2)CC1=O)C1COc2cccc(OC)c2C1 (stereo not given) = satisfied
3. CCCN(CCC)CC1COc2cccc(OC)c2C1 (stereo not given) = not satisfied
4. CCCN(CCCCN1C(=O)CC2(CCCC2)CC1=O)CC1COc2cccc(OC)c2C1 (stereo not given) = not satisfied

###

Target: 5-hydroxytryptamine receptor 2C (Homo sapiens, UniProt P28335)
Sequence (P28335 whole entry): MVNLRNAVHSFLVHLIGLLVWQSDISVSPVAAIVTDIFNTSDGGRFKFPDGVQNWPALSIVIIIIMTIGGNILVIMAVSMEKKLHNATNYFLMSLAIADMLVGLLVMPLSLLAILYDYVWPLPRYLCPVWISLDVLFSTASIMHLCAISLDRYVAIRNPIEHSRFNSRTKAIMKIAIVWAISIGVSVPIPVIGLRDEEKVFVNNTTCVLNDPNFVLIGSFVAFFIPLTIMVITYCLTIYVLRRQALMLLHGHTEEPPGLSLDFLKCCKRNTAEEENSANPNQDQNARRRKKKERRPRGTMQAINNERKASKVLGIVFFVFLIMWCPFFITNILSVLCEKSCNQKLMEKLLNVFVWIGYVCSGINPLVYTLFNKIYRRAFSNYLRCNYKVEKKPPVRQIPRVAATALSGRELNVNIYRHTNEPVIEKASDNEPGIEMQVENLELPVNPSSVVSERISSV
pIC50: −log10 of the molar value.
test.readout: pIC50

1) CCCN(CCC)CC1COc2cccc(OC)c2C1 (stereo unspecified) = 4.47

###

Molecular target: D(2) dopamine receptor (Homo sapiens)
Test: Compound was evaluated for the binding affinity towards Dopamine receptor D2 by displacement of […].
pIC50: −log10 of the molar value.
test.readout: pIC50

1) COc1cccc2c1CC1(CCCN1CCCCN1C(=O)CC3(CCCC3)CC1=O)CO2 (stereo unspecified) = 5.96

###

Biological target: D(1A) dopamine receptor (Homo sapiens, UniProt P21728)
Sequence (P21728 whole entry): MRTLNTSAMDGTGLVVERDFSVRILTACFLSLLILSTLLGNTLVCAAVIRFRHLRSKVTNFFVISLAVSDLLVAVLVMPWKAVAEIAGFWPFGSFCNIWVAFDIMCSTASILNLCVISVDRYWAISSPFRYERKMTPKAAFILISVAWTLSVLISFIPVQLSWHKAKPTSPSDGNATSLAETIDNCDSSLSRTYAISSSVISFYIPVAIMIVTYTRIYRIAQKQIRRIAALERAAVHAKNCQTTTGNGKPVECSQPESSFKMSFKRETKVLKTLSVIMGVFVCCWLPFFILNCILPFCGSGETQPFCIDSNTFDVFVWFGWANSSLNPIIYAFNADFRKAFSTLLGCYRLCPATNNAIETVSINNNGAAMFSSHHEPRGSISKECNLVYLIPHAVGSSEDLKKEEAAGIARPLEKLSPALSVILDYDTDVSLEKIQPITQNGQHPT
Experiment: Compound was evaluated for the binding affinity towards Dopamine receptor D1 by displacement of […].
test.readout: IC50 (µM)

1. CCCN(CCC)CC1COc2cccc(OC)c2C1 (stereo unspecified) = 34.7
